- TEST TARGET: T1, methylesterase/deamidase CheB from E. coli, low-activity, unphosphorylated form (E. coli, UniProt P07330 1-349)
- T1 construct: CheB methylesterase/deamidase of E. coli, unphosphorylated, from plasmid pCW/cheB; measured with 2 mM DTT in the buffer; also called low-activity CheB; unmodified CheB; source: E. coli K-12 RP3098 with pCW/cheB, purified
- T1 sequence (looked up): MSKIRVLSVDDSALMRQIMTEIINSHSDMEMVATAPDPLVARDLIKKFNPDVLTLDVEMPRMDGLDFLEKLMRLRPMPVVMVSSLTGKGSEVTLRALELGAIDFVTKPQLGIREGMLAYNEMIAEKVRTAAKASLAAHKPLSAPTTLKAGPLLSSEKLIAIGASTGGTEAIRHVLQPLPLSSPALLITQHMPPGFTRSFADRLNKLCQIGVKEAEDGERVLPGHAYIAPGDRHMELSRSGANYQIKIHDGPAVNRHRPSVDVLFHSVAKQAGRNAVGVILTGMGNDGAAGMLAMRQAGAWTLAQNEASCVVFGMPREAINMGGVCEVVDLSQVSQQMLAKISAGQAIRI
- MEASUREMENT DESCRIPTION: BLI; BLItz; NWETF pentapeptide tethered to the sensor surface via a linker, CheB in solution; apparent rate constants, KD calculated from kon and koff
- CONDITION NOTES: both partners purified
pKd: −log10 of the molar value. Ends that are not written are not given here.
RESULT TYPE: pKd

• NWETF (also: tethered to sensor surface via a linker (not described), carboxyl-terminal pentapeptide of the E. coli chemoreceptor Tar; also called pentapeptide alone) [NWETF pentapeptide tethered to the sensor surface via a linker] = 3.72

Values were extracted from paper PMC8609364.
